testSystem: T1, recombinant cyno IL1RAP ECD (cynomolgus monkey, UniProt P59822 21-367 (rhesus entry))
T1 construct: also called rcynoIL1RAP
T1 sequence: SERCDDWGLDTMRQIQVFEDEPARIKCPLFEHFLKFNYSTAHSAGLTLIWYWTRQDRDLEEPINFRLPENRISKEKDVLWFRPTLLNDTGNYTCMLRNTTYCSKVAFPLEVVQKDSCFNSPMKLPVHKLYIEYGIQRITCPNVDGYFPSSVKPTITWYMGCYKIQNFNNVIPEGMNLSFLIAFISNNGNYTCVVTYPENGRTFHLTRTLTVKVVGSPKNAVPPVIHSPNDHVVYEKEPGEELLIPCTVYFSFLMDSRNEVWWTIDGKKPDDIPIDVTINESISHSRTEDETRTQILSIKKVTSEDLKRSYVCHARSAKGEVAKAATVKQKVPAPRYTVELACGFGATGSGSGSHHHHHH
runDescription: recombinant protein
readoutLabel: binding result

IAPB54 (antibody, human IgG4 S228P, lambda, F234A L235A, V domains shown, IgG4-PAA; also called 17B04 with human IgG4-PAA) VH: QVQLVQSGSELKKPGASVKVSCKASGYTFNTYAMNWVRQAPGQGLEWMGWINTNTGNPTYAQGFTGRFVFSLDTSVSTAYLQISSLKAEDTAVYYCARRYFDWLLGAFDIWGQGTMVTVSS VL: QSALTQPRSVSGSPGHSVTISCTGTSSDVGDYNYVSWYQQRPGKVPKLLIYDVSKRPSGVPDRFSGSKSGNTASLTISGLQAEDEAIYFCCSYAGNYNVVFGGGTKLTVLG
binds
IAPB61 (antibody, human IgG4 S228P, kappa, F234A L235A, V domains shown, IgG4-PAA; whole chains) VH: QLQLQESGPGLVKPSETLSLTCTVSGVSISSSTYYWGWLRQPPGMGLEWTGSIYFTGNTYYNPSLKSRVTISVDTSRNQFSLKLSSVTAADTAVYYCGSLFGDYGYFDYWGQGTLVTVSS VL: EIVMTQSPATLSVPPGERATLSCRASQFISSNLAWYQQKPGQAPRLLIYGASTRATGIPARFSGSGSGTDFTLTISSLQSEDFAVYYCQQYNNWPSTFGPGTKVDIKR
binds
IAPB23 (antibody, human IgG4 S228P, kappa, F234A L235A, V domains shown, IgG4-PAA; whole chains) VH: EVQLLESGGGLVQPGGSLRLSCAASGFTFSNYWMNWVRQAPGKGLEWVSAIRYDGGSKYYADSVKGRFTISRDNSKNTLYLQMNSLRAEDTAVYYCAKDAYPPYSFDYWGQGTLVTVSS VL: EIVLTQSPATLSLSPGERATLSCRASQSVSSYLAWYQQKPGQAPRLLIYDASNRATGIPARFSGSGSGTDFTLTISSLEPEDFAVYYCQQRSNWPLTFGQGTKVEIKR
binds

The origin of these recorded values is patent US20190270826A1.
